Please respond with reported activation (HDL uptake increase) for every item in the list.
# system: Scavenger receptor class B member 1 (Mus musculus) (UniProt Q61009)
# Sequence (Q61009 whole entry, looked up): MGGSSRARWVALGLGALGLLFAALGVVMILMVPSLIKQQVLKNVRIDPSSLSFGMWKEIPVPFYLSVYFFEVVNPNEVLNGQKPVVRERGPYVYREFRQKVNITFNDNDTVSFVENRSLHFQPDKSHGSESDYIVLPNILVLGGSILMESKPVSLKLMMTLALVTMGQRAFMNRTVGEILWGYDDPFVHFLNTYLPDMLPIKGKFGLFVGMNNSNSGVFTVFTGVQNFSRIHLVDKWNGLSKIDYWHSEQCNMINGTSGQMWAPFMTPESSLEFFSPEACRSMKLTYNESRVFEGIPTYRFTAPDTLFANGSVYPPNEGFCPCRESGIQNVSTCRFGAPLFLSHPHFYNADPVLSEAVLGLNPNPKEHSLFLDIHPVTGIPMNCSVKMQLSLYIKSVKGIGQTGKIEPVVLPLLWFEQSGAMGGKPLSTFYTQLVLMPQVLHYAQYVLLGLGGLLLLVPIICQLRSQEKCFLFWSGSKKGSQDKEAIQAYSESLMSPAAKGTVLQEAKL
# assay-text: enhancers of DiI-HDL lipid transfer via SR-BI – cell-based, ldlA[mSR-BI] CHO, DiI fluorescence, cherry-pick, dose response (AID 602191);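 note: cell fluorescence from internalized DiI-labeled HDL after washing; 0% = median of DMSO wells and 100% = twice the DMSO signal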
# test-conditions: ldlA[mSR-BI] CHO cells, 3 h, at 35 µM (top of the series)
Field format: number, assumed %, no unit text.

# activation (HDL uptake increase) of Cc1csc(NC(=O)Cc2ccccc2[N+](=O)[O-])n1 = 1.17

# activation (HDL uptake increase) of CC1CCCC(C)N1C(=O)COC(=O)CN1C(=O)c2ccccc2C1=O (stereo unspecified) = -4.2

# activation (HDL uptake increase) of CCCCn1c(CN2CCN(C(=O)c3ccco3)CC2)nc2c1c(=O)n(C)c(=O)n2C = 2.07

# activation (HDL uptake increase) of COc1cc(-n2c(C)nc3cc(C(=O)NCC4CCCO4)ccc32)cc(OC)c1OC (stereo unspecified) = -12.1

# activation (HDL uptake increase) of CC(=O)NC(Cc1ccccc1)C(=O)OCC(=O)c1ccccc1 (stereo unspecified) = -12

# activation (HDL uptake increase) of CC(C)(C)NC(=O)C[C@H]1C[C@H](C(=O)N2CCOCC2)[C@@]2(CCC3CCCC3)c3[nH]c4cc(-c5ccco5)ccc4c3CCN2C1=O = -1.73

# activation (HDL uptake increase) of CCC(C)(C)NC(=O)C(c1cccnc1)N(CCOC)C(=O)Cn1nnc2ccccc21 (stereo unspecified) = -4.87

# activation (HDL uptake increase) of COc1ccc(CCNS(=O)(=O)c2cn(C)c(=O)n(C)c2=O)cc1OC = -3.3

# activation (HDL uptake increase) of CC(C)(C)n1nc2c(c1NC(=O)Cc1ccc(F)cc1)CS(=O)(=O)C2 = 9.82

# activation (HDL uptake increase) of CC(C)(C)OC(=O)C[C@H]1C/C=C\C[C@H](CC(=O)NCCO)C(=O)NCCOC1=O = -2.75

# activation (HDL uptake increase) of CC(C)C[C@@H](CN1CCCC1CN1C(=S)NC[C@@H]1Cc1ccc(O)cc1)N1C[C@H](Cc2ccc(O)cc2)N(CCc2ccccc2)C1=S (stereo partly specified) = 39.2

# activation (HDL uptake increase) of COc1ccccc1N1CCN(C2CCCN(C(=O)c3ccccn3)C2)CC1 (stereo unspecified) = -4.31

# activation (HDL uptake increase) of CC(C(=O)NCCS(=O)(=O)c1ccc(Br)cc1)S(=O)(=O)c1ccc(Cl)cc1 (stereo unspecified) = 11.1

# activation (HDL uptake increase) of Cc1ccc(CN2CCNC(=O)C2CC(=O)N2CCN(c3ncccn3)CC2)o1 (stereo unspecified) = -8.96

# activation (HDL uptake increase) of NC(=O)C1CCN(C(=O)C2CC(=O)N(c3ccc4c(c3)OCCO4)C2)CC1 (stereo unspecified) = -4.66

# activation (HDL uptake increase) of Cc1c(/C(O)=C2/C(=O)C(=O)N(CCN3CCOCC3)C2c2cccnc2)cnn1-c1ccccc1 (stereo unspecified) = -0.755

# activation (HDL uptake increase) of COc1ccc(NC(=O)N(C)C[C@H]2Oc3c(NC(=O)c4ccncc4)cccc3C(=O)N([C@H](C)CO)C[C@@H]2C)cc1 = -11.2

# activation (HDL uptake increase) of CC1(C)CC(=O)C2=C(C1)N(CC1CCCO1)C(=O)C2(O)C(F)(F)F (stereo unspecified) = 8.29

# activation (HDL uptake increase) of O=C(Nc1cccc(S(=O)(=O)NC2=NCCC2)c1)c1ccc(F)cc1F = -14.5

# activation (HDL uptake increase) of N#CCCN1CCN(S(=O)(=O)c2ccc(C3CCCCC3)cc2)CC1 = 12

# activation (HDL uptake increase) of CCOC(=O)c1c(NC(=O)C2COc3ccccc3O2)sc2c1CC(C)(C)NC2(C)C (stereo unspecified) = -5.51

# activation (HDL uptake increase) of O=C(O)C1CCN(Cc2cnn(-c3ccccc3)c2-n2cccc2)CC1 = 6.93

# activation (HDL uptake increase) of NC(=O)C1CCN(C(=O)C2CC(=O)N(Cc3ccccc3)C2)CC1 (stereo unspecified) = -2.16

# activation (HDL uptake increase) of CCc1cc(C(=O)Nc2cc(S(=O)(=O)N3CCOCC3)ccc2N2CCN(CC)CC2)sc1C = -0.114

# activation (HDL uptake increase) of O=C(CC1C(=O)NCCN1Cc1ccc(Cl)c(F)c1)NC1CCCCC1 (stereo unspecified) = -11.9

# activation (HDL uptake increase) of CN(C)CCn1c2c(c(SCC(=O)NCc3ccccc3)nc1=O)CCCC2 = 5.5

# activation (HDL uptake increase) of O=C1CN(C(=O)COC(=O)C2=COCCO2)c2ccccc2N1 = 7.62

# activation (HDL uptake increase) of COC(=O)Cc1c(C)c2ccc(OCc3nn[nH]n3)cc2oc1=O = 4.87

# activation (HDL uptake increase) of CSCCC(NC(=O)c1ccco1)C(=O)NC1CCC(C)CC1 (stereo unspecified) = -3.23

# activation (HDL uptake increase) of C=CCn1c(C(CCC(C)C)CC(C)(C)O)n[nH]c1=S (stereo unspecified) = 7.72

# activation (HDL uptake increase) of CN(C)CCCNC(=O)/C=C/c1ccc2c(c1)OCO2 = -4.26

# activation (HDL uptake increase) of CCN1C(=O)C2C(c3cccc(F)c3)NC(CC)(C(=O)OC)C2C1=O (stereo unspecified) = -4.79

# activation (HDL uptake increase) of COCCNC(=O)c1cnn2c1NC(c1ccco1)CC2C(F)(F)F (stereo unspecified) = -4

# activation (HDL uptake increase) of O=C(CCCc1nc2ccccc2s1)NCc1ccccc1 = -3.71

# activation (HDL uptake increase) of COC(=O)CNC(=O)C12CC3CC(C1)CC(c1ccc(C)cc1)(C3)C2 = -4.62

# activation (HDL uptake increase) of CCN(CC)C(=O)c1ncn(Cc2ccccc2)c1C(=O)N(CC)CC = -3.26

# activation (HDL uptake increase) of COC(=O)Cc1csc(Nc2ccccc2)n1 = 0.176

# activation (HDL uptake increase) of CN(c1cccc(NC(=O)CN(c2ccc(C34CC5CC(CC(C5)C3)C4)cc2)S(C)(=O)=O)c1)S(C)(=O)=O = 17.6

# activation (HDL uptake increase) of Cc1cccc(CCNS(=O)(=O)c2ccc3c(c2)NC(=O)CO3)c1 = 11.6

# activation (HDL uptake increase) of CCN1CCN(C(=O)CCc2nc3ccccc3c(=O)[nH]2)CC1 = 9.34

# activation (HDL uptake increase) of COc1ccc(NC(=O)C(Sc2nnc3ccccn23)c2ccccc2)cc1Cl (stereo unspecified) = -16.3
